The measurements presented in this section are drawn from PubChem BioAssay AID1159580.

// normalized growth lookup, one value per entry
experiment: chemical genetic growth profiling, strain panel (AID 1159580);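 also: tested at 20 µM; growth read once vehicle control cultures reached saturation at 30 °C; 1 = growth at the plate median or of vehicle wells; lower values mean less growth of the strain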; details: S. cerevisiae deletion strains, growth OD, locus YLR342W, strain FKS1 (second series), active compounds read low
About 2,000 (36%) of roughly 5,500 compounds were called active. Roughly 18% stayed inconclusive and do not appear here. The list shows a part of the results.
The response must contain the number and no unit.

1) CC1(C)S[C@@H]2C(N3C(=O)[C@@H](c4ccccc4)NC3(C)C)C(=O)N2[C@H]1C(=O)O (stereo partly drawn) : 0.997

Task item: Give a short answer stating reported normalized growth for CC1=C2C(O)C(=O)OC3CC4C(C)(C)C(=O)C=C[C@]4(C)C(CC1)[C@]23C (stereo partly drawn) .
Reply: 1.03

Task item: Give a short answer stating reported normalized growth for `COc1ccccc1N1CCN(CCCNc2cc(=O)n(C)c(=O)n2C)CC1` .
Reply: 1.03

Task item: Give a short answer stating reported normalized growth for `COc1ccc(-c2cc(=O)c3c(O)c(OC)c(O[C@H]4O[C@H](CO[C@@H]5O[C@@H](C)[C@H](O)[C@@H](O)[C@H]5O)[C@@H](O)[C@H](O)[C@H]4O)cc3o2)cc1` .
Reply: 1.03

* * *

experiment: chemical genetic growth profiling, strain panel (AID 1159580);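 also: tested at 20 µM; growth read once vehicle control cultures reached saturation at 30 °C; 1 = growth at the plate median or of vehicle wells; lower values mean less growth of the strain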; conditions: S. cerevisiae deletion strains, growth OD, locus YHR087W, strain rtc3, active compounds read low
Out of some 5,500 compounds screened, about 2,000 (36%) were called active. Another 18% or so got no clear call; they are omitted. This is one part of the list.
outcome measure: normalized growth
The response must contain the number and no unit.

Example cases with answers are listed next.
1) c1ccc(-c2ncc3ccccn23)cc1 : 0.999
2) Cn1c(SCc2ccccc2)nnc1-c1ccc2ncccc2c1 : 0.999
3) O=C(Nc1ccc(Cl)cc1)N1CCN(c2ncccc2C(F)(F)F)CC1 : 0.939
4) CC(=O)CS(=O)(=O)c1ccc(Cl)cc1 : 0.998
5) Clc1ccc2ocnc2c1 : 0.996

Task item: Give a short answer stating reported normalized growth for `CCOC(=O)/C(C#N)=C/N=C(N/N=C\c1c(Cl)cccc1Cl)SC` .
Reply: 1.01

Task item: Give a short answer stating reported normalized growth for `CCN(CCS(=O)(=O)c1ccc(C)cc1)S(=O)(=O)c1ccccc1` .
Reply: 0.994

Task item: Give a short answer stating reported normalized growth for `CCn1nc(C)cc1C(=O)O` .
Reply: 1.01

* * *

assay: chemical genetic growth profiling, strain panel (AID 1159580);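 also: tested at 20 µM; growth read once vehicle control cultures reached saturation at 30 °C; 1 = growth at the plate median or of vehicle wells; lower values mean less growth of the strain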; settings: S. cerevisiae deletion strains, growth OD, locus YOR061W, strain CKA2, active compounds read low
About 2,000 (36%) of roughly 5,500 compounds were called active. Another 18% or so got no clear call; they are omitted. The list shows a part of the results.
// normalized growth lookup, one value per entry
The response must contain the number and no unit.

Example cases with answers are listed next.
1) COc1ccc(-c2cc(=O)c3c(O)cc(O)cc3o2)cc1 : 0.991
2) O=C1OC(c2ccccc2)=C/C1=C/c1ccccc1 : 0.844
3) CCn1nc(C(=O)O)c(=O)c2cc3c(cc21)OCO3 : 1.01
4) CCn1nc(C)cc1C(=O)Sc1cccc(Br)c1 : 0.662

Task item: Give a short answer stating reported normalized growth for `COc1ccc(-c2cc(=O)c3c(O)c(OC)c(O[C@H]4O[C@H](CO[C@@H]5O[C@@H](C)[C@H](O)[C@@H](O)[C@H]5O)[C@@H](O)[C@H](O)[C@H]4O)cc3o2)cc1` .
Reply: 1.02
